molecular target: DNA topoisomerase 1 (Homo sapiens) (UniProt P11387); test: Induction of human DNA topoisomerase 1-mediated DNA cleavage at 1 to 10 uM by polyacrylamide gel electrophoresis
Sequence (P11387 whole entry): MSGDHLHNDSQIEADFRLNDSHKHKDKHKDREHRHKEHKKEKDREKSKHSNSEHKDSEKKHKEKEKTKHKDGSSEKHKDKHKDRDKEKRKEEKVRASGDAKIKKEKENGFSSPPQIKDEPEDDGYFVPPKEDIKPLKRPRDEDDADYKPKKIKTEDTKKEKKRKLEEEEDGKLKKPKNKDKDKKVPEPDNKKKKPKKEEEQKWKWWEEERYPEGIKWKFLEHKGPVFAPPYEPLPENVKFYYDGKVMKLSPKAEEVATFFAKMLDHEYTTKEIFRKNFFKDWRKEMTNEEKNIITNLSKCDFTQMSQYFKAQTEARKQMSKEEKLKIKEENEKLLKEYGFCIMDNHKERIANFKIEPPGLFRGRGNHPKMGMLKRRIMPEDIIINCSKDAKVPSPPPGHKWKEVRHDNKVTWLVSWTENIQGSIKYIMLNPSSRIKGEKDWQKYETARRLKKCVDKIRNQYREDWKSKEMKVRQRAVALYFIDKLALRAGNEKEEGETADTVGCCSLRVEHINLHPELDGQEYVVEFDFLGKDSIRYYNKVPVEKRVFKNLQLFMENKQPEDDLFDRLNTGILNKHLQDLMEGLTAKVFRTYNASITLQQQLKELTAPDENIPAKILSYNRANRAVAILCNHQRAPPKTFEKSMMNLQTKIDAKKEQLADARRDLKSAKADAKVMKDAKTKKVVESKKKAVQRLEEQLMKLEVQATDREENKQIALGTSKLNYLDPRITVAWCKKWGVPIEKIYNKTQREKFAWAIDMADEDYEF
Experimental readout: Activity (%)

Record excerpt, results attached:
Incoming: Given the molecule `O=C1c2[nH]c3ccccc3c2C(=O)c2cnc3ccccc3c21` , write its reported Activity.
Outgoing: 24

Incoming: Check the records and state Activity for `CO[n+]1cc2c(c3ccccc31)C(=O)c1[nH]c3ccccc3c1C2=O`
Outgoing: 11

1 = C[n+]1cc2c(c3ccccc31)C(=O)c1[nH]c3ccccc3c1C2=O.[I-]
2 = O=C1c2c[n+]([O-])c3ccccc3c2C(=O)c2[nH]c3ccccc3c21
Incoming: Of 1 versus 2 , which is the one with smaller reported Activity? Lab log: write the label of the selected item as the result.
Outgoing: 1
(1: 11%, 2: 18%)

Source: ChEMBL document CHEMBL1152332
